- assay procedure: Cmax in Sprague-Dawley rat at 3 mg/kg, iv
- Type: ADME, organism-based
- Design: dose 3 mg/kg, route intravenous
- details: in vivo
experimental readout: Cmax (ng/mL)

(P) Nc1onc(-c2ccc(F)cc2)c1-c1ccncn1
(Q) O=C(Cc1c(F)cccc1Cl)Nc1onc(-c2ccc(F)cc2)c1-c1ccncn1
Challenge: Param pair: P , Q . Output: the one whose Cmax is numerically greater. Kindly state the label of the option you pick.
Response given: P

###

- assay procedure: Metabolic stability in human liver S9 fraction assessed as compound remaining at 1 uM after 5 mins by LC-MS/MS analysis
- Type: ADME, subcellular
- details: read-out: Stability
experimental readout: remaining at 5 min, 1 µM (%)

As a guide, the following entries are already answered.
>>> observed_measurement("O=C(CCc1ccccc1)Nc1onc(-c2ccc(F)cc2)c1-c1ccncc1")
32.1
>>> observed_measurement("O=C(Cc1ccccc1Cl)Nc1onc(-c2ccc(F)cc2)c1-c1ccncn1")
5.8
>>> observed_measurement("CC(=O)Nc1onc(-c2ccc(F)cc2)c1-c1ccncc1")
92.4
>>> observed_measurement("Fc1ccc(-c2n[nH]c(CCCc3ccccc3)c2-c2ccncc2)cc1")
81.5
>>> observed_measurement("O=C(Cc1ccccc1)Nc1[nH]nc(-c2ccc(F)cc2)c1-c1ccncc1")
90.4
>>> observed_measurement("Cn1nc(NC(=O)Cc2ccccc2)c(-c2ccncc2)c1-c1ccc(F)cc1")
84.4
>>> observed_measurement("Cc1cc(-c2noc(NC(=O)Cc3ccccc3C)c2-c2ccncn2)ccc1F")
52.6

(I) O=C(Cc1ccccc1F)Nc1onc(-c2ccc(F)cc2)c1-c1ccncn1
(II) Cc1cccc(-c2noc(NC(=O)Cc3ccccc3Cl)c2-c2ccncn2)c1
(III) O=C(CCCc1ccccc1)Nc1onc(-c2ccc(F)cc2)c1-c1ccncc1
Challenge: Put the entries in order of remaining at 5 min, 1 µM, starting with the largest number. Sort and list the labels as requested.
Response given: III, II, I
